The entries below are paired with their reported log10 IC50.
target: EGFR L858R/C797S (Homo sapiens, UniProt P00533, C797S/L858R); test: Biochemical EGFR kinase inhibition assay (Lance Ultra TR-FRET), double mutant L858R/C797S; details: IC50 L858R/C797S (nM), 100 μM ATP
Sequence (P00533 25-1210 C797S/L858R): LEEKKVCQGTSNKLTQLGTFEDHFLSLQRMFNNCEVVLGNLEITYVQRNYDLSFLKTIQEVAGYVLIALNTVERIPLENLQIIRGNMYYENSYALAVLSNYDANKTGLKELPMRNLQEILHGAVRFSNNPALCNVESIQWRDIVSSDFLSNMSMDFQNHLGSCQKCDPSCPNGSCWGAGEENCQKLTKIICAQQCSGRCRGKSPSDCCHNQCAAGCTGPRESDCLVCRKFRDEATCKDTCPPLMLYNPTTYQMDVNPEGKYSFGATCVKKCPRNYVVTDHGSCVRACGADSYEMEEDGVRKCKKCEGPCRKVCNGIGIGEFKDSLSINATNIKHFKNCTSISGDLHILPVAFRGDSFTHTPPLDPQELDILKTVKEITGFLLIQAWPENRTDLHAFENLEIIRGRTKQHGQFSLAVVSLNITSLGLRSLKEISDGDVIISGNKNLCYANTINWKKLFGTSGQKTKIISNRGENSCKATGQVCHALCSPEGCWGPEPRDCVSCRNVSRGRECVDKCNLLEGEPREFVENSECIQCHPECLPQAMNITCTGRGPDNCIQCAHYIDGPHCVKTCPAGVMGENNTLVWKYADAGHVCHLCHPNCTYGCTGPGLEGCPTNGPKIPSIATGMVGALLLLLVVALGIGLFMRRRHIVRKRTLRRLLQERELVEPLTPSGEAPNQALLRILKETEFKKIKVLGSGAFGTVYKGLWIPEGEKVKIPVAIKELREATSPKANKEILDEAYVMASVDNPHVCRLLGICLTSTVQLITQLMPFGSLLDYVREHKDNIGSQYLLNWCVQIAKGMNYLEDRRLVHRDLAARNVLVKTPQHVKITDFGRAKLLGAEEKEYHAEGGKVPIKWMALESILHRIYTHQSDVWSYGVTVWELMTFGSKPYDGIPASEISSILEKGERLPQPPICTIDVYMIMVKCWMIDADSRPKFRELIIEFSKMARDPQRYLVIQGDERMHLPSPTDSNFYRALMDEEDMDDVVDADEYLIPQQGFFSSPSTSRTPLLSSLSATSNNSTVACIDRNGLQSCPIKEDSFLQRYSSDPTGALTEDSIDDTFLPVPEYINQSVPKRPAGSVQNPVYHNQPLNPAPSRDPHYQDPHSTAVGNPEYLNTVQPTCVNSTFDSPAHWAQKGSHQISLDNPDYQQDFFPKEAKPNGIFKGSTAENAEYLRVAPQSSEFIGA
On a log10 scale: recorded IC50, unit nM.

Below: 8 compounds and their reported log10 IC50.
Cn1cc(C#Cc2cnc(Nc3ccnc(-c4cnn(S(=O)(=O)C5CC5)c4)n3)cc2N2CCC(NS(C)(=O)=O)CC2)cn1
1.92
O=S(=O)(C1CC1)n1cc(-c2nccc(Nc3cc(N4CCC5(CCO5)CC4)c(C#Cc4ncc(CN5CCOCC5)cn4)cn3)n2)cn1
1.41
CC(=O)N1CCC(n2cc(C#Cc3cnc(Nc4ccnc(-c5cnn(S(=O)(=O)C6CC6)c5)n4)cc3N3CCC(F)CC3)cn2)CC1
1.23
CN1CCN(Cc2ccc(C#Cc3cnc(Nc4ccnc(-c5cnn(S(=O)(=O)C6CC6)c5)n4)cc3NC[C@H]3CC[C@H](O)CC3)cc2)CC1
2.67
CN1CCC2(CC1)CCN(c1cc(Nc3ccnc(-c4cnn(S(=O)(=O)C5CC5)c4)n3)ncc1C#Cc1cnn(CC(F)F)c1)CC2
1.26
O=S(=O)(C1CC1)n1cc(-c2nccc(Nc3cc(N4CCC(O)CC4)c(C#Cc4csc(CF)n4)cn3)n2)cn1
1.99
CN1CCN(C2CCN(c3cc(Nc4ccnc(-c5cnn(S(=O)(=O)C6CC6)c5)n4)ncc3C#Cc3ccsc3)CC2)CC1
1.64
CC1(CO)CCN(c2cc(Nc3ccnc(-c4cnn(S(C)(=O)=O)c4)n3)ncc2C#Cc2cnn(C(F)(F)F)c2)CC1
2.06

Lab note: next compound to report on.
Exercise: Identify measured log10 IC50 associated with Cn1cc(C#Cc2cnc(Nc3ccnc(-c4cnn(S(=O)(=O)C5CC5)c4)n3)cc2N[C@H]2CCC[C@@H](O)C2)cn1
Solution: 2.02

---

Biological target: EGFR Del19/T790M/C797S (Homo sapiens, UniProt P00533, C797S/DEL746-750/T790M)
Sequence (P00533 with tags, fused parts or gaps DEL746-750/T790M/C797S): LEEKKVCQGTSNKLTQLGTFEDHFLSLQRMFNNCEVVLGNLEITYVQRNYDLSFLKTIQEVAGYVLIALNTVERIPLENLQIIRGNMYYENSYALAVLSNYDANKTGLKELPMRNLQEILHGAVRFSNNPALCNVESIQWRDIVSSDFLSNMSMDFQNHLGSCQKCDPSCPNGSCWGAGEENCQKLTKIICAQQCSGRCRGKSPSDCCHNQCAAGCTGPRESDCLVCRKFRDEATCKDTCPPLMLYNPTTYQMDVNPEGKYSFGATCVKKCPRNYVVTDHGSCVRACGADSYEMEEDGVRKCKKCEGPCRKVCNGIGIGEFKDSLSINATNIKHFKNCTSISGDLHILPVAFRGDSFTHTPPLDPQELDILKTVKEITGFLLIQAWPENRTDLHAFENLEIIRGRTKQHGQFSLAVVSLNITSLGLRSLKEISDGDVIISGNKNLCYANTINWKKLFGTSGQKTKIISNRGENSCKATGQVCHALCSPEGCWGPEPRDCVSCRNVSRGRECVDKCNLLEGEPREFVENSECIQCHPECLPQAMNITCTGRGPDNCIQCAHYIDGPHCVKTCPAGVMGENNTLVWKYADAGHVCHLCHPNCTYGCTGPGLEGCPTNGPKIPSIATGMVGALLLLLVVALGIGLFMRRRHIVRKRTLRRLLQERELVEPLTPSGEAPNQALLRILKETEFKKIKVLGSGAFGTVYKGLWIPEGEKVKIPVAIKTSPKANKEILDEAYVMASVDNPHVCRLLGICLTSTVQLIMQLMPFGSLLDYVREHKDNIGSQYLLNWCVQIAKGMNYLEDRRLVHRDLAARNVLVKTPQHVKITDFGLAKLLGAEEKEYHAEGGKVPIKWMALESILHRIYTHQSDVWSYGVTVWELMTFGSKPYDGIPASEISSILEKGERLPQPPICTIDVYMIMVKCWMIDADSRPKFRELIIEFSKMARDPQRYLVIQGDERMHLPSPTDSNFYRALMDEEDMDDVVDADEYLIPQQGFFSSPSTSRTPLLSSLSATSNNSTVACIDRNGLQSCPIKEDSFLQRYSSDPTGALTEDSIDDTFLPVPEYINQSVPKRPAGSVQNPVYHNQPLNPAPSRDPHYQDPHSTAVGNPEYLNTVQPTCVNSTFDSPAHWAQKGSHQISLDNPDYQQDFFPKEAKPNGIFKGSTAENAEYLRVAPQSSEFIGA
Test: Biochemical EGFR kinase inhibition assay (Lance Ultra TR-FRET), triple mutant del19/T790M/C797S
Settings: IC50 Del19/T790M/C797S (nM), 100 μM ATP
Method: Biochemical EGFR kinase assays were conducted using Lance Ultra time-resolved fluorescence resonance energy transfer (TR-FRET) technology from Perkin-Elmer. […] Each kinase reactions were incubated at room temperature for 1 hour and then stopped by the addition of 4 μL of stop solution (10 mM EDTA). […] After 60 minutes incubation at room temperature the LANCE signal was measured on an EnVision Multilabel Reader (Perkin-Elmer). […]
Records here are stratified by IC50; strata: low class = under 0.9 nM, middle class = from 0.9 nM up to 2 nM, high class = 2 nM and over

Record excerpt, results attached:
Cn1cc(C#Cc2cnc(Nc3ccnc(-c4cnn(S(=O)(=O)C5CC5)c4)n3)cc2N2CCCC(C(F)(F)F)C2)cn1 (stereo not shown)
high class
O=S(=O)(C1CC1)n1cc(-c2nccc(Nc3cc(N[C@H]4CC[C@@H](CO)CC4)c(C#Cc4cnn(C(F)F)c4)cn3)n2)cn1
high class
CC1(CO)CCN(c2cc(Nc3ccnc(-c4cnn(S(=O)(=O)C5CC5)c4)n3)ncc2C#CC2CCCO2)CC1 (stereo not shown)
low class
O=S(=O)(C1CC1)n1cc(-c2nccc(Nc3cc(NC4CCC(O)CC4)c(C#Cc4cnn(C5CC5(F)F)c4)cn3)n2)cn1 (stereo not shown)
middle class

Exercise: Please report the category associated with O=S(=O)(C1CC1)n1cc(-c2nccc(Nc3cc(N[C@H]4CCC[C@H](O)C4)c(C#Cc4cnn(CC(F)(F)F)c4)cn3)n2)cn1 , nothing else.
Solution: high class

Exercise: Please report the category associated with CN1CC(n2cc(C#Cc3cnc(Nc4ccnc(-c5cnn(S(=O)(=O)C6CC6)c5)n4)cc3N3CCC(C)(CO)CC3)cn2)C1 , nothing else.
Solution: low class

Exercise: Please report the category associated with Cn1cc(C#Cc2cnc(Nc3ccnc(-c4cnn(S(=O)(=O)C5CC5)c4)n3)cc2N[C@H]2CC[C@@H](NCCF)CC2)cn1 , nothing else.
Solution: low class
